System: RXF 393 renal
Protocol Summary: NCI-60 one-dose screen, 48 h
Conditions: 10 µM unless noted
About 83,000 compounds went through this panel and 20% of them were active in at least one assay; those are over-represented in the sample as a whole. Active and inactive are the calls of the source. How the source made its calls: active means growth percent below 10; inactive means the rest.
Outcome field: choose from Y = active, N = inactive

Examples from the recorded data:
Molecule | Classification
CC(C)c1cccc(C(C)C)c1O | N
CC[C@@H](C)C(=O)O[C@H]1[C@H](O)[C@H]2[C@@H](CN3C[C@@H](C)CC[C@H]3[C@@]2(C)O)[C@@H]2C[C@]34O[C@]5(O)[C@@H](OC(=O)[C@@](C)(O)CC)CC[C@@]3(C)[C@@H]5[C@@H](OC(C)=O)[C@@H](OC(C)=O)[C@H]4[C@@]21O | N
CCCN1C(=O)NC(=O)C(CC)(N2C(=O)c3c(F)c(F)c(F)c(F)c3C2=O)C1=O (stereo not given) | Y
C[C@]12CC[C@H]3[C@@H](C[C@@H]4SC(Nc5ccccc5)=N[C@@]45C/C(=N/O)CC[C@]35C)[C@@H]1CCC2=O | N

Now turn to the next molecule.
Q) Which outcome did this test record for the molecule O=S1(=O)OCCO1 ?
A) N

----------
Provide the recorded growth for the entries that follow.
Tested on: NCI-H226 lung
Protocol Summary: NCI-60 one-dose screen, 48 h (100 = growth as untreated, 0 = no growth, -100 = all killed)
Conditions: 10 µM unless noted
Description: Growth inhibition of the NCI-H226 human Non-Small Cell Lung tumor cell line is measured as a screen for anti-cancer activity. Cells are grown in 96 well plates and exposed to the test compound for 48 hours. Compounds are tested at a single concentration, which is 10^-5 M for most compounds. The reported endpoint is percent growth (GI% or GIPRCNT), where numbers from 0 - 100% represent growth inhibition, and numbers from -100% - 0 represent cell death. […]
Compounds without any hit were thinned out: in the full panel of roughly 83,000, 20% have a hit.
Give bare numbers, in %.

Illustrative cases are given below, each with its answer.
Compound | Unit Text | growth
Cc1cc[c-]cc1.Fc1c[c-]c(-c2ccccn2)c(F)c1.N#CCC[PH+](CCC#N)c1ccccc1.[Pt+2] | % | 72.3
O=C1c2ccccc2C(=O)N1N1CC1c1ccccc1 (centres undefined) | % | 102
COC(=O)CCP(CCC(=O)OC)c1ccccc1 | % | 104
COc1ccc2c(c1)c(-c1nc(-c3cn(C)c4ncccc34)cs1)cn2CCCCN1CCOCC1 | % | 70.1
Cc1cc(N(CCCl)CCCl)ccc1C=Nc1ccc(-c2csc(-c3ccccc3)n2)cc1 | % | 58.5
CC[C@H](C)[C@H]1O[C@]2(C=C[C@@H]1C)C[C@@H]1C[C@@H](C/C=C(\C)[C@@H](O[C@H]3C[C@H](OC)[C@@H](O[C@H]4C[C@H](OC)[C@@H](NC)[C@H](C)O4)[C@H](C)O3)[C@@H](C)/C=C/C=C3\CO[C@@H]4[C@H](O)C(C)=C[C@@H](C(=O)O1)[C@]34O)O2 | % | -75.2
CNC(=O)Oc1ccc(Cl)cc1SSc1cc(Cl)ccc1OC(=O)NC | % | 102
CCOP(=O)(NC)OCC | % | 94.3

Now, please, on to the next compound.
Q) Item CCOC(=O)P(=O)(OCC)OCC has what recorded growth?
A) 106
